All values here come from PubChem BioAssay (NCI).

Readings of growth for the listed compounds
- Tested on: CCRF-CEM leukemia
- Assay text: NCI-60 one-dose screen, 48 h (100 = growth as untreated, 0 = no growth, -100 = all killed)
- Reported conditions: 10 µM
The panel holds about 83,000 compounds, 20% with a hit somewhere; the sample as a whole holds those more often.
Quick reminder: number only, in %, skip the unit.

Before answering, review these 3 worked examples.
{"columns": ["Compound", "growth, %"],
 "data": [
  ["CCCCCCCCCCSC(=N)N", 51.3],
  ["O=C1C=C(O)c2ccccc2C1=O.[Ag]", 101],
  ["OC(CN1CCCC2CCCCC21)c1cc2ccccc2c2ccccc12 (centres undefined)", 68.2]
]}

stdin: # query: growth of entry `NC1=C(Cl)C(=O)c2ccccc2C1=O`
stdout: 46

* * *

- System: SK-MEL-5 melanoma
- Assay text: NCI-60 one-dose screen, 48 h
- Reported conditions: 10 µM unless noted
About 83,000 compounds went through this panel and 20% of them were active in at least one assay; those are over-represented in the sample as a whole. The source made the active and inactive calls. The calls were made as follows: active = growth percent below 10; inactive = the rest.
Pick one: active, inactive

Reference set (3 entries):
{"columns": ["Molecule", "Qualitative label"],
 "data": [
  ["O=C1C=CC(=CC=C2C=CN(CCCCCCCCCCCO)C=C2)C=C1", "active"],
  ["O=C(/C=C/c1cccnc1)c1ccccc1", "inactive"],
  ["COc1cccc2c1C(=O)c1c(O)c3c(c(O)c1C2=O)C[C@@](O)(C(C)=O)C[C@@H]3OC1CC(N)C(O)C(C)O1 (some centres not stated)", "active"]
]}

stdin: Recorded call for CS(=O)(=O)OC1CC(n2ccc(=O)[nH]c2=O)OC1COC(c1ccccc1)(c1ccccc1)c1ccccc1 (configuration not stated) ?
stdout: inactive

stdin: Recorded call for OC(CN1CCCC2CCCCC21)c1cc2ccccc2c2ccccc12 (configuration not stated) ?
stdout: active

stdin: Recorded call for `Clc1cc(Cl)c(Cl)nn1` ?
stdout: inactive

stdin: Recorded call for `COc1ccc(CC(=O)c2ccc(O)cc2O)cc1` ?
stdout: inactive

* * *

- Tested on: OVCAR-3 ovarian
- Assay text: NCI-60 one-dose screen, 48 h
- Reported conditions: 10 µM
This is part of a sample that, as a whole, favours compounds with a hit. Of some 83,000 tested, about 20% had one in any assay. Calls of active or inactive are those of the source. Rule for the calls: active = growth percent below 10; inactive = the rest.
Pick one: 1 (yes) = active, 0 (no) = inactive

{"columns": ["Compound", "Qualitative label"],
 "data": [
  ["O=C(/C=C/c1ccccn1)c1ccccc1", "0 (no)"],
  ["COc1ccc(CC(=O)c2ccc(O)cc2O)cc1", "0 (no)"]
]}

stdin: Recorded call for CCN(CC)c1ccc(NC(C(=O)c2ccccc2)c2ccccc2)cc1 (stereo not drawn) ?
stdout: 1 (yes)

* * *

- Test system: SF-539 CNS
- Assay text: NCI-60 one-dose screen, 48 h
- Reported conditions: 10 µM
Compounds without any hit were thinned out: in the full panel of roughly 83,000, 20% have a hit. Calls of active or inactive are those of the source. Rule for the calls: active = growth percent below 10; inactive = the rest.
Pick one: active, inactive

Reference set (9 entries):
{"columns": ["Compound", "Qualitative label"],
 "data": [
  ["COC(=O)C1C(O)C(C)C(O)C(C)C=C(C)C2=C3C(=C(C)C(=O)c4c(O)c(c(C)c(OC(C)=O)c43)NC(=O)C(C)=C/C=C\\C(C)C(O)C(C)C1O)OCO2 (stereo not given)", "inactive"],
  ["Cc1nc(N=C(N)N)nc2ccc3ccccc3c12", "active"],
  ["CSC1SCC2C(=O)N(C)C(C(C)C)C(=O)OCC(NC(=O)c3cnc4ccccc4n3)C(=O)NC(C)C(=O)N(C)C1C(=O)N(C)C(C(C)C)C(=O)OCC(NC(=O)c1cnc3ccccc3n1)C(=O)NC(C)C(=O)N2C (stereo not given)", "active"],
  ["NNc1c2ccccc2nc2ccccc12", "inactive"],
  ["COC(=O)C1=COC(C)C2C[n+]3ccc4c([nH]c5ccccc54)c3CC12 (stereo not given)", "inactive"],
  ["COC1OCC(O)C(O)C1O (stereo not given)", "inactive"],
  ["O=C1C=CC(=CC=C2C=CN(CCCCCCCCCCCO)C=C2)C=C1", "inactive"],
  ["N=S(c1ccccc1[N+](=O)[O-])c1ccccc1[N+](=O)[O-]", "inactive"],
  ["COc1cccc2c1C(=O)c1c(O)c3c(c(O)c1C2=O)C[C@@](O)(C(=O)CO)C[C@@H]3OC1CC(N)C(O)C(C)O1 (stereo not given in full)", "active"]
]}

Consider now this further compound.
stdin: Recorded call for `CCN1/C(=C/C=C/C=C/c2sc3ccccc3[n+]2CC)Sc2ccccc21` ?
stdout: active
